Hello, the source for this data is paper PMC12416549, in case you need it.

- SUBJECT OF TEST: T1, TNFR1 (Homo sapiens, UniProt P19438)
- T1 chain: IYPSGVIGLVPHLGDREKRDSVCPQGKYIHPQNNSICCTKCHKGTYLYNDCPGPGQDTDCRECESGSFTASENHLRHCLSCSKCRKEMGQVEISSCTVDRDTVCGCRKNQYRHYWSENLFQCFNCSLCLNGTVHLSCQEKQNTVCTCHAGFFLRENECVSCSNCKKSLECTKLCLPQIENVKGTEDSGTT
- ASSAY DETAILS: yeast display SC50
READOUT TYPE: apparent Kd (screen) (nM)

Request the reported apparent Kd (screen) associated with K107P (designed binder) SMEEEVEKAAKEYEKKKKEAIEKHLEKLKAKDKEAAERFLKELEEAAKEYAKDEAKTMSEEEAKRRAKKYKEKVLLSELSEEEQKEIKEAEEKLVRTILKYVEEAAP
0.956

P. K33V (designed binder) SMEEEVEKAAKEYEKKKKEAIEKHLEKLKAKDVEAAERFLKELEEAAKEYAKDEAKTMSEEEAKRRAKKYKEKVLLSELSEEEQKEIKEAEEKLVRTILKYVEEAAK
Q. K17I (designed binder) SMEEEVEKAAKEYEKKIKEAIEKHLEKLKAKDKEAAERFLKELEEAAKEYAKDEAKTMSEEEAKRRAKKYKEKVLLSELSEEEQKEIKEAEEKLVRTILKYVEEAAK
R. I98V (designed binder) SMEEEVEKAAKEYEKKKKEAIEKHLEKLKAKDKEAAERFLKELEEAAKEYAKDEAKTMSEEEAKRRAKKYKEKVLLSELSEEEQKEIKEAEEKLVRTVLKYVEEAAK
Highest apparent Kd (screen) first, then in falling order down to the smallest. // format: requested-order list of labels
R, Q, P
